- Tested on: CCRIS mutagenicity, Ames/micronucleus/aberration tests
- Assay Name: CCRIS mutagenicity studies
- Cond: Test System: AMES SALMONELLA TYPHIMURIUM; Strain/Indicator: TA100; Metabolic Activation: NONE; Method: STANDARD PLATE
Calls of active or inactive are those of the source. The rule behind the calls is not given here.
Reported Property: mutagenic call

O=NN1CCCCC1: inactive; negative
Cc1c2ccccc2c(CCl)c2ccc3ccccc3c12: active; positive
Nc1ccc(S(=O)(=O)c2ccc(N)cc2)cc1: inactive; negative
CC(=O)OCc1c2ccccc2cc2ccc3ccccc3c12: active; positive

Query: Determine its reported mutagenic call: CCCCCCOCCOCCO
Response: inactive; negative

Query: Determine its reported mutagenic call: CC(C)(C)c1cc(Cc2cc(C(C)(C)C)c(O)c(C(C)(C)C)c2)cc(C(C)(C)C)c1O
Response: inactive; negative

Query: Determine its reported mutagenic call: CC1=CCC(C(C)(C)O)CC1 (centres undefined)
Response: inactive; negative

Query: Determine its reported mutagenic call: O=[N+]([O-])c1cc2ccc3cccc4ccc(c1O)c2c34
Response: active; positive

Query: Determine its reported mutagenic call: C[C@@H]1CC[C@@]2(OC1)O[C@H]1C[C@H]3[C@@H]4CC=C5C[C@@H](O[C@@H]6O[C@H](CO)[C@@H](O)[C@H](O[C@@H]7O[C@H](CO)[C@@H](O)[C@H](O)[C@H]7O)[C@H]6O[C@@H]6O[C@@H](C)[C@H](O)[C@@H](O)[C@H]6O)CC[C@]5(C)[C@H]4CC[C@]3(C)[C@H]1[C@@H]2C
Response: inactive; negative

Query: Determine its reported mutagenic call: CCCCOCC(=O)O
Response: inactive; negative

* * *

- Tested on: CCRIS mutagenicity, Ames/micronucleus/aberration tests
- Assay Name: CCRIS mutagenicity studies
- Cond: Test System: AMES SALMONELLA TYPHIMURIUM; Strain/Indicator: TA98; Metabolic Activation: HAMSTER, LIVER, S-9, AROCLOR 1254 (30%); Method: PREINCUBATION
Activity calls are given as the source filed them. How the calls were made is not given here.
Choose one outcome from this list and give only that: active, inactive

CCCCCCCCCCCCOCC1CO1 (stereo unspecified): inactive
CCCN(CCC)C(=O)SCC: inactive
O=[N+]([O-])c1c2ccccc2cc2ccccc12: active
CCN(Cc1cccc(S(=O)(=O)[O-])c1)c1ccc(C(=C2C=CC(=[N+](C)C)C=C2)c2ccc(N(CC)Cc3cccc(S(=O)(=O)O)c3)cc2)cc1: active

Query: # outcome recorded in this test, key = Cn1cnc([N+](=O)[O-])c1Sc1ncnc2nc[nH]c12
Response: inactive

Query: # outcome recorded in this test, key = O=[N+]([O-])c1c(O)c(Cl)cc(Cl)c1Cl
Response: inactive

* * *

- System: CCRIS mutagenicity, Ames/micronucleus/aberration tests
- Assay Name: CCRIS mutagenicity studies
- Cond: Test System: AMES SALMONELLA TYPHIMURIUM; Strain/Indicator: TA97; Metabolic Activation: HAMSTER, LIVER, S-9, AROCLOR 1254 (10%); Method: PREINCUBATION
- From the text: The CCRIS database contains chemical records with carcinogenicity, mutagenicity, tumor promotion, and tumor inhibition test results. It was developed by the National Cancer Institute (NCI). Data are derived from studies cited in primary journals, current awareness tools, NCI reports, and other sources. Test results have been reviewed by experts in carcinogenesis and mutagenesis. CCRIS provides historical information from the years 1985 - 2011. It is no longer updated. […]
Calls of active or inactive are those of the source. How the calls were made is not given here.
Choose one outcome from this list and give only that: active, inactive

The examples below pair each entry with its known result.
Nc1ccc(Cc2ccc(N)cc2)cc1: active
O=[N+]([O-])c1ccc(CCO)cc1: inactive
CCCCCCCCCCCCOCC1CO1 (stereo unspecified): inactive
S=c1[nH]c2ccccc2[nH]1: inactive
CC(=O)OCCC(C)C: inactive
CCNc1nc(Cl)nc(NC(C)C)n1: inactive
OCCCBr: inactive
C1CCC(NC2CCCCC2)CC1: inactive
N#C/C(N)=C(/N)C#N: inactive
O=C(OCC1CO1)c1cccc(C(=O)OCC2CO2)c1 (stereo unspecified): inactive

Query: # outcome recorded in this test, key = O=C(O)c1cccc(Cl)c1
Response: inactive

Query: # outcome recorded in this test, key = CCCCCCCCn1sccc1=O
Response: inactive

Query: # outcome recorded in this test, key = N#CCC#N
Response: inactive

Query: # outcome recorded in this test, key = C=CC(=O)NCNC(=O)C=C
Response: inactive

Query: # outcome recorded in this test, key = CCN(CC)C(=O)c1cccc(C)c1
Response: inactive

Query: # outcome recorded in this test, key = Nc1nc2ccccc2[nH]1
Response: inactive
